Biological target: human BAFF (human, UniProt Q9Y275 82-285, limits assumed)
Sequence (Q9Y275 82-285 limits assumed): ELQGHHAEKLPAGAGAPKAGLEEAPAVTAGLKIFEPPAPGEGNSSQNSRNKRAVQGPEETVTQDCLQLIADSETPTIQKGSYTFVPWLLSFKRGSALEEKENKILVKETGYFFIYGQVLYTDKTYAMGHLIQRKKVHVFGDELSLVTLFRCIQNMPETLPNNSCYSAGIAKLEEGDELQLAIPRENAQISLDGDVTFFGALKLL
Test: shotgun scan, phage display
Method: Phage from each of the libraries described above were subjected to rounds of binding selection against APRIL, BAFF, or anti-tag antibody (3C8:2F4 Genentech, Inc.) immobilized on 96-well Nunc Maxisorp immunoplates (Sidhu, 2001). […] Enrichment was calculated from the ratio of the phage titer eluted from the target-coated wells to the phage titer eluted from the BSA-coated wells. […] For APRIL-binding, 71, 40, and 54 sequences were analyzed from libraries one, two and three, respectively. […]
property_measured: F (BAFF)

SLSCRKEQGKFYDHALRDCISCASICGQHPKQCAYFCENKLR (receptor, phage library variant, format as m9) [TACI_d2 L82A] | > 36
SLSCRKEQGKFYDHPLRDCISCASICGQHPKQCAYFCENKLR (receptor, phage library variant, format as m9) [TACI_d2 L82P] | > 61
SLSCRKEQGKFYAHLLRDCISCASICGQHPKQCAYFCENKLR (receptor, phage library variant, format as m9) [TACI_d2 D80A] | > 42
